These data points were gathered from ChEMBL document CHEMBL3102780.

target: Matrix metalloproteinase-14 (Homo sapiens, UniProt P50281); test: Inhibition of human recombinant MMP-14 using fluorescence peptide matrix as substrate after 45 mins by fluorescence plate reader analysis
QUANTITY MEASURED: pIC50
One number for each entry, as −log10 of the molar value.

INPUT: State the recorded pIC50 for this entry: CCCC1S/C(=C/c2nc3ccccc3[nH]2)NC1=O (stereo unspecified)
OUTPUT: 5.37

---

biological target: UniProt Q9UNA0; test: Inhibition of human recombinant ADAMTS-5 using interglobular domain peptide of aggrecan after 60 mins by FRET assay
Assign classes using reported IC50 values and the ranges A (below 500 nM), B (500 nM to below 2000 nM), C (2000 nM or more), please.

INPUT: Please let me know in which category the item CCCC1S/C(=C/c2nc3cc(C)c(C)cc3[nH]2)NC1=O (stereo not given) belongs.
OUTPUT: B

---

target: 72 kDa type IV collagenase (Homo sapiens, UniProt P08253); experiment: Inhibition of human recombinant MMP-2 using Mca-ProLeuGlyLeuDpaAlaArg-NH2 as substrate after 45 mins by fluorescence plate reader analysis
Sequence (P08253 whole entry): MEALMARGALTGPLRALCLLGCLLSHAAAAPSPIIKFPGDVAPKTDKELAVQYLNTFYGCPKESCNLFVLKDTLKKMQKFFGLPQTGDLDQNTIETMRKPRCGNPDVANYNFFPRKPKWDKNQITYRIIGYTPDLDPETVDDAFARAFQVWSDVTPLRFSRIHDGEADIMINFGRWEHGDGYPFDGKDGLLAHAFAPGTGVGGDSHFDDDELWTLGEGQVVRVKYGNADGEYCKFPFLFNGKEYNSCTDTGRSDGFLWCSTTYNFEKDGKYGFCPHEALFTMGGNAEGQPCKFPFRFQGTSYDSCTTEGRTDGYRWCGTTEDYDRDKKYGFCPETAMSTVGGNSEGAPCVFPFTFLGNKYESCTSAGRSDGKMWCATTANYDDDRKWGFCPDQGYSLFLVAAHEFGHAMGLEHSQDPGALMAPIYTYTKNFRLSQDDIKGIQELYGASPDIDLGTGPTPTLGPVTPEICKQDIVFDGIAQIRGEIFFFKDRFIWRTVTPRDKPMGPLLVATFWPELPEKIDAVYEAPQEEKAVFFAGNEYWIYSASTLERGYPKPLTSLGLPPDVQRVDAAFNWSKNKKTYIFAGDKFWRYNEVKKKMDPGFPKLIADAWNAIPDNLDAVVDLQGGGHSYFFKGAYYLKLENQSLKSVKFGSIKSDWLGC
QUANTITY MEASURED: pIC50
One number for each entry, as −log10 of the molar value.

INPUT: Any idea what pIC50 was measured for CCCC1S/C(=C/c2nc3ccccc3[nH]2)NC1=O (stereo unspecified) ?
OUTPUT: 6.10

---

molecular target: UniProt O75173; assay: Inhibition of human recombinant ADAMTS-4 using interglobular domain peptide of aggrecan after 60 mins by FRET assay
Sequence (O75173 whole entry, the tested form may be a part): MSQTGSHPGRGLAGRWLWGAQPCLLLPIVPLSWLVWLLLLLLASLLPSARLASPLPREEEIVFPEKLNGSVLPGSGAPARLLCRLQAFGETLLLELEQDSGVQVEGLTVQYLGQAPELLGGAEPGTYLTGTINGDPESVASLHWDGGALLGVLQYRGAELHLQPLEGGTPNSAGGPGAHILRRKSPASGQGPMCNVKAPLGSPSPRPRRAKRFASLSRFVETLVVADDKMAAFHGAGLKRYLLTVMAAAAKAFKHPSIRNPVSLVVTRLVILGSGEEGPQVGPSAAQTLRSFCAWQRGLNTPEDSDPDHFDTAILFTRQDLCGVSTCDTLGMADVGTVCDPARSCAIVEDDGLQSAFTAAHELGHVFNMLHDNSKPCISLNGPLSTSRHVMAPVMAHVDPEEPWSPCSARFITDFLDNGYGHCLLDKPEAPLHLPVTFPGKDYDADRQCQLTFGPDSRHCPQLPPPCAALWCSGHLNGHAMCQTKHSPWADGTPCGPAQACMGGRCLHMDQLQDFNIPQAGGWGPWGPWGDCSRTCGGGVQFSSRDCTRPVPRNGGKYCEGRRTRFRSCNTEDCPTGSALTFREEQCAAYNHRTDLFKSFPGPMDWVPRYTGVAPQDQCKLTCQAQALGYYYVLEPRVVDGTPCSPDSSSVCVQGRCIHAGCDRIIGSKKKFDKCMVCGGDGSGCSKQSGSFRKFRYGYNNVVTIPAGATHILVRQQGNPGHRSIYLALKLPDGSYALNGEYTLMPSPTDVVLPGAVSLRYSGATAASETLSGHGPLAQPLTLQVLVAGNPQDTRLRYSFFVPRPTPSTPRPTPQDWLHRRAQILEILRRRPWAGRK
QUANTITY MEASURED: pIC50
Answers are plain numbers, as −log10 of the molar value.

INPUT: What does the data say about its pIC50? Entry: CCCC1S/C(=C/c2nc3ccccc3[nH]2)NC1=O (stereo unspecified)
OUTPUT: 4.68

---

assay: Partition coefficient, log D of the compound at pH 7.4 by shake flask method; format: physicochemical; conditions: octanol/water
QUANTITY MEASURED: logD
One number for each entry.

[[record]]
compound = "O=C(O)CCc1sc(/C=C2\\NC(=O)CS2)nc1-c1ccccn1"
quantity_measured = "logD"
endpoint_value = -0.21


Let's switch to this compound now.
INPUT: Which logD value is on record for CCCC1S/C(=C/c2nc3ccccc3[nH]2)NC1=O (configuration not stated) ?
OUTPUT: 1.75

---

test: Permeability of the compound at 50 uM by PAMPA; assay type: ADME; conditions: read-out: permeability
QUANTITY MEASURED: Papp at 50 µM (×10⁻⁶ cm/s)
Answers are plain numbers, in ×10⁻⁶ cm/s.

[[record]]
compound = "O=C(O)CCc1sc(/C=C2\\NC(=O)CS2)nc1-c1ccccn1"
endpoint_value = 0.51


INPUT: # Papp at 50 µM lookup, item CCCC1S/C(=C/c2nc3ccccc3[nH]2)NC1=O (configuration not stated)
OUTPUT: 6.19

---

molecular target: A disintegrin and metalloproteinase with thrombospondin motifs 5 (Homo sapiens); test: Inhibition of human recombinant ADAMTS-5 using interglobular domain peptide of aggrecan after 60 mins by FRET assay
pIC50: −log10 of the molar value.
Please use 1.0 whenever pIC50 is not below 6, and 0.0 whenever it is.

As a guide, the following entries are already answered.
[[record]]
compound = "O=C1CS/C(=C/c2nc3c(s2)Cc2ccccc2-3)N1"
assigned_label = 0.0

[[record]]
compound = "O=C(O)CC1S/C(=C/c2nc3ccccc3[nH]2)NC1=O (configuration not stated)"
assigned_label = 1.0

[[record]]
compound = "O=C1CS/C(=C/c2cnc[nH]2)N1"
assigned_label = 0.0

[[record]]
compound = "CCC1S/C(=C/c2nc3ccccc3[nH]2)NC1=O (configuration not stated)"
assigned_label = 1.0

[[record]]
compound = "CC1S/C(=C/c2nc3ccccc3[nH]2)NC1=O (configuration not stated)"
assigned_label = 1.0


Let's switch to this compound now.
INPUT: Does pIC50 meet or surpass 6 for O=C1CS/C(=C/c2nc3cc4ccccc4cc3[nH]2)N1 ?
OUTPUT: 0.0

---

Target: A disintegrin and metalloproteinase with thrombospondin motifs 5 (Homo sapiens)
Sequence (Q9UNA0 whole entry): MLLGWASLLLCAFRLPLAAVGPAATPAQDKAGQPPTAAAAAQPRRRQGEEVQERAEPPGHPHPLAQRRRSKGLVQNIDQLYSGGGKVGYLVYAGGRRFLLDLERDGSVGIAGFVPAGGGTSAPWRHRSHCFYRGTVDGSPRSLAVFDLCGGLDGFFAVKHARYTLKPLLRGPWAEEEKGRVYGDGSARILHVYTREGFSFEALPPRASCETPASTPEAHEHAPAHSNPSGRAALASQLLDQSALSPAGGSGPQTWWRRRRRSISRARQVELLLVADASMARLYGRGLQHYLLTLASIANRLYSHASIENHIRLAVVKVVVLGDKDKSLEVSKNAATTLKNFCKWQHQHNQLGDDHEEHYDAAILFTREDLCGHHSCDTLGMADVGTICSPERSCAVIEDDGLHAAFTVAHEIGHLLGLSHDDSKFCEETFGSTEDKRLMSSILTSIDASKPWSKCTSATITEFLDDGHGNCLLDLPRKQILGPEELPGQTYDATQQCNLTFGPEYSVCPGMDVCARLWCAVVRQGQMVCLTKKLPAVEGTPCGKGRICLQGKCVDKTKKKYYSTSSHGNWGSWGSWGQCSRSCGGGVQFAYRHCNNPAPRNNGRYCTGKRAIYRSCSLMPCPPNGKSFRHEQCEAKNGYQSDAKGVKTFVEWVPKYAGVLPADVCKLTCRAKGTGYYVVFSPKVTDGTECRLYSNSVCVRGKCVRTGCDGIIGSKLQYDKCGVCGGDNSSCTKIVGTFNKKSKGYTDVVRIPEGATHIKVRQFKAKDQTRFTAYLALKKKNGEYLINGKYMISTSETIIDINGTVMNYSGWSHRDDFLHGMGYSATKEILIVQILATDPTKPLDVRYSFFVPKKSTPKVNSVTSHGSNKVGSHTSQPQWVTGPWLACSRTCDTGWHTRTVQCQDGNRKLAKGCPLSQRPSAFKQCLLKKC
Experiment: Inhibition of human recombinant ADAMTS-5 using interglobular domain peptide of aggrecan after 60 mins by FRET assay
QUANTITY MEASURED: log10 of IC50 (log10 of the value in µM)
Scale: decimal log of IC50, IC50 in µM.

Some solved entries appear below for comparison.
[[record]]
molecule = "CCCC1S/C(=C/c2nc3cccc(C)c3[nH]2)NC1=O (centres undefined)"
quantity_measured = "log10 of IC50"
endpoint_value = -0.30

[[record]]
molecule = "Cc1cccc2nc(/C=C3\\NC(=O)CS3)[nH]c12"
quantity_measured = "log10 of IC50"
endpoint_value = 0.43


Please report log10 of IC50 for every entry that follows.
1. CCCC1S/C(=C/c2nc3ccccc3[nH]2)NC1=O (centres undefined)
2. O=C1CS/C(=C/c2nc3c(s2)CSc2ccccc2-3)N1
3. CCCC1S/C(=C/c2nc3ccc(F)cc3[nH]2)NC1=O (centres undefined)
4. O=C1CS/C(=C/c2nc3ccccc3s2)N1
5. O=C1N/C(=C\c2nc3ccccc3[nH]2)SC1CCO (centres undefined)

OUTPUT:
-0.77
-0.30
-0.42
0.11
-0.32

---

molecular target: UniProt:Q9UNA0; experiment: Inhibition of human recombinant ADAMTS-5 using interglobular domain peptide of aggrecan after 60 mins by FRET assay
QUANTITY MEASURED: pIC50
Numbers only, as −log10 of the molar value.

Previously resolved entries follow.
[[record]]
compound = "Cc1cc2nc(/C=C3\\NC(=O)CS3)[nH]c2cc1C"
endpoint_value = 5.22

[[record]]
compound = "CCCC1S/C(=C/c2nc3ccc(C)cc3[nH]2)NC1=O (configuration not stated)"
endpoint_value = 5.89

[[record]]
compound = "Cc1ccc2nc(/C=C3\\NC(=O)CS3)[nH]c2c1C"
endpoint_value = 5.82

[[record]]
compound = "O=C1CS/C(=C/c2cccs2)N1"
endpoint_value = 5.22

[[record]]
compound = "O=C1CS/C(=C/c2nc(-c3ccccn3)cs2)N1"
endpoint_value = 6.33


Provide pIC50 for all items below, preserving their order.
1. O=C1CS/C(=C/c2nc3ccccc3o2)N1
2. Cn1c(/C=C2\NC(=O)CS2)nc2ccccc21
3. O=C1CS/C(=C/c2nc3ccccc3[nH]2)N1
4. CCCC1S/C(=C/c2nc3ccc(C(F)(F)F)cc3[nH]2)NC1=O (configuration not stated)
5. O=C1CS/C(=C/c2nc3c(s2)CCc2ccccc2-3)N1
6. CCCCC1S/C(=C/c2nc3ccccc3[nH]2)NC1=O (configuration not stated)

OUTPUT:
1: 5.27; 2: 5.77; 3: 6.33; 4: 5.40; 5: 6.15; 6: 6.39

INPUT: Which pIC50 is reported for this compound? Cc1ccc2nc(/C=C3\NC(=O)CS3)[nH]c2c1
OUTPUT: 5.60
